The measurements presented in this section are drawn from patent US7511284B2.

# protocol: Absorption and fluorescence maxima with and without CB7
# Assay type: physicochemical
# Set-up: unit not given here
# particulars: without CB7
observation.type: λabs max
Provide a numeric answer; units are not to be included.

Below, 4 compounds whose answers are already recorded.
# compound CCN1C(=CC=CC2=[N+](CC)c3ccc(S(=O)(=O)[O-])cc3C2(C)C)C(C)(C)c2cc(S(=O)(=O)O)ccc21 [Cyanine 3, cyanine 3] ; its λabs max = 544.6

# compound CCN1C(=CC=CC=CC2=[N+](CC)c3ccc(S(=O)(=O)[O-])cc3C2(C)C)C(C)(C)c2cc(S(=O)(=O)O)ccc21 [Cyanine 5, cyanine 5] ; its λabs max = 642.0

# compound Cc1cc(=O)oc2c3c4c(cc12)CCCN4CCC3 [Coumarin-102, coumarin 102] ; its λabs max = 392.6

# compound CN(C)c1ccc2c(-c3ccccc3C(=O)[O-])c3ccc(N(C)C)cc3[o+]c2c1 [Tetramethylrhodamine, tetramethylrhodamine] ; its λabs max = 552.6

Next up:
# compound CCN=c1cc2oc3cc(NCC)c(C)cc3c(-c3ccccc3C(=O)OCC)c-2cc1C.Cl [Rhodamine 6G, rhodamine 6G] ; its λabs max = 526.0

###

# protocol: Fluorescence quantum yield and brightness with and without CB7
# Type: physicochemical
# particulars: without CB7
observation.type: φf
Provide a numeric answer; units are not to be included.

Below, 4 molecules whose answers are already recorded.
# molecule "CCN1C(=CC=CC=CC2=[N+](CC)c3ccc(S(=O)(=O)[O-])cc3C2(C)C)C(C)(C)c2cc(S(=O)(=O)O)ccc21" ; its φf = 0.27

# molecule "Cc1cc(=O)oc2c3c4c(cc12)CCCN4CCC3" ; its φf = 0.66

# molecule "CCN=c1cc2oc3cc(NCC)c(C)cc3c(-c3ccccc3C(=O)OCC)c-2cc1C.Cl" ; its φf = 0.89

# molecule "CN(C)c1ccc2c(-c3ccccc3C(=O)[O-])c3ccc(N(C)C)cc3[o+]c2c1" ; its φf = 0.20

Continuing:
# molecule "CCN1C(=CC=CC2=[N+](CC)c3ccc(S(=O)(=O)[O-])cc3C2(C)C)C(C)(C)c2cc(S(=O)(=O)O)ccc21" ; its φf = 0.15

###

Listed here are compounds together with their documented λem max.
# protocol: Absorption and fluorescence maxima with and without CB7
# Assay type: physicochemical
# Set-up: unit not given here
# particulars: without CB7
Provide a numeric answer; units are not to be included.

# compound "CCN1C(=CC=CC2=[N+](CC)c3ccc(S(=O)(=O)[O-])cc3C2(C)C)C(C)(C)c2cc(S(=O)(=O)O)ccc21" ; its λem max = 560.0

# compound "CCN1C(=CC=CC=CC2=[N+](CC)c3ccc(S(=O)(=O)[O-])cc3C2(C)C)C(C)(C)c2cc(S(=O)(=O)O)ccc21" ; its λem max = 660.0

# compound "CCN=c1cc2oc3cc(NCC)c(C)cc3c(-c3ccccc3C(=O)OCC)c-2cc1C.Cl" ; its λem max = 552.0

# compound "Cc1cc(=O)oc2c3c4c(cc12)CCCN4CCC3" ; its λem max = 489.0

# compound "CN(C)c1ccc2c(-c3ccccc3C(=O)[O-])c3ccc(N(C)C)cc3[o+]c2c1" ; its λem max = 577.0

###

# protocol: Fluorescence quantum yield and brightness with and without CB7
# Assay type: physicochemical
# Design: unit not given beside the values
# particulars: without CB7
Decide using ε × φf (brightness): a value greater than or equal to 20000 is Met, a smaller one is Not met.

I'd appreciate it if you could say whether "CCN=c1cc2oc3cc(NCC)c(C)cc3c(-c3ccccc3C(=O)OCC)c-2cc1C.Cl" has ε × φf (brightness) at least equal to 20000.
Met

I'd appreciate it if you could say whether "Cc1cc(=O)oc2c3c4c(cc12)CCCN4CCC3" has ε × φf (brightness) at least equal to 20000.
Not met

I'd appreciate it if you could say whether "CN(C)c1ccc2c(-c3ccccc3C(=O)[O-])c3ccc(N(C)C)cc3[o+]c2c1" has ε × φf (brightness) at least equal to 20000.
Not met

I'd appreciate it if you could say whether "CCN1C(=CC=CC=CC2=[N+](CC)c3ccc(S(=O)(=O)[O-])cc3C2(C)C)C(C)(C)c2cc(S(=O)(=O)O)ccc21" has ε × φf (brightness) at least equal to 20000.
Met

Continuing:
I'd appreciate it if you could say whether "CCN1C(=CC=CC2=[N+](CC)c3ccc(S(=O)(=O)[O-])cc3C2(C)C)C(C)(C)c2cc(S(=O)(=O)O)ccc21" has ε × φf (brightness) at least equal to 20000.
Not met

###

# protocol: Fluorescence quantum yield and brightness with and without CB7
# Assay type: physicochemical
# particulars: with 1 mM CB7
observation.type: φf
Provide a numeric answer; units are not to be included.

# molecule CN(C)c1ccc2c(-c3ccccc3C(=O)[O-])c3ccc(N(C)C)cc3[o+]c2c1 [Tetramethylrhodamine, tetramethylrhodamine] ; its φf = 0.271

# molecule CCN1C(=CC=CC=CC2=[N+](CC)c3ccc(S(=O)(=O)[O-])cc3C2(C)C)C(C)(C)c2cc(S(=O)(=O)O)ccc21 [Cyanine 5, cyanine 5] ; its φf = 0.456

# molecule CCN1C(=CC=CC2=[N+](CC)c3ccc(S(=O)(=O)[O-])cc3C2(C)C)C(C)(C)c2cc(S(=O)(=O)O)ccc21 [Cyanine 3, cyanine 3] ; its φf = 0.108

# molecule Cc1cc(=O)oc2c3c4c(cc12)CCCN4CCC3 [Coumarin-102, coumarin 102] ; its φf = 0.754

Continuing:
# molecule CCN=c1cc2oc3cc(NCC)c(C)cc3c(-c3ccccc3C(=O)OCC)c-2cc1C.Cl [Rhodamine 6G, rhodamine 6G] ; its φf = 0.883

###

# protocol: Fluorescence quantum yield and brightness with and without CB7
# Format: physicochemical
# Parameters: unit not given beside the values
# particulars: with 1 mM CB7
ε × φf (brightness) vs 20000: less than gives TRUE; not less than gives FALSE.

Solved entries (count: 2):
Determine whether this molecule shows ε × φf (brightness) lower than 20000 (ties excluded): "Cc1cc(=O)oc2c3c4c(cc12)CCCN4CCC3"
TRUE

Determine whether this molecule shows ε × φf (brightness) lower than 20000 (ties excluded): "CCN=c1cc2oc3cc(NCC)c(C)cc3c(-c3ccccc3C(=O)OCC)c-2cc1C.Cl"
FALSE

Continuing:
Determine whether this molecule shows ε × φf (brightness) lower than 20000 (ties excluded): "CCN1C(=CC=CC2=[N+](CC)c3ccc(S(=O)(=O)[O-])cc3C2(C)C)C(C)(C)c2cc(S(=O)(=O)O)ccc21"
TRUE

Determine whether this molecule shows ε × φf (brightness) lower than 20000 (ties excluded): "CCN1C(=CC=CC=CC2=[N+](CC)c3ccc(S(=O)(=O)[O-])cc3C2(C)C)C(C)(C)c2cc(S(=O)(=O)O)ccc21"
FALSE
